CC50 values by entry
test: Cytotoxicity against human Huh-5-2 cells; assay type: cell-based

These solved cases illustrate the format of a correct answer.
1) COc1ccc(C#Cc2nc(C(N)=O)nn2COCCO)cc1 :: > 50 µg/mL
2) NC(=O)c1nc(C#Cc2ccc(F)cc2)n(COCCO)n1 :: > 50 µg/mL
3) NC(=O)c1ncn([C@@H]2O[C@H](CO)[C@@H](O)[C@H]2O)n1 :: 21 µg/mL

Exercise: Read off the recorded CC50 for "NC(=O)c1nc(C#Cc2cccc(F)c2)n(COCCO)n1"
Solution: 29 µg/mL

Exercise: Read off the recorded CC50 for "NC(=O)c1nc(C#Cc2ccccc2F)n(COCCO)n1"
Solution: > 50 µg/mL

Exercise: Read off the recorded CC50 for "NC(=O)c1nc(C#CCCCCl)n(COCCO)n1"
Solution: > 50 µg/mL

Exercise: Read off the recorded CC50 for "Cc1ccc(C#Cc2nc(C(N)=O)nn2COCCO)cc1"
Solution: > 50 µg/mL
